// provenance: ChEMBL document CHEMBL4145675

- Tested on: Staphylococcus aureus
- assay_details: Antimicrobial activity against Staphylococcus aureus SA-1199B expressing wild type norA by microdilution method
- Format: organism-based
- conditions_used: in vivo
observed_property: MIC

Solved entries:
structure_as_smiles: CCCOc1ccc(-c2cc(OCCN3CCCCC3)c3cc(OC)cc(OC)c3n2)cc1
subject_of_test: Staphylococcus aureus
MIC: > 100 µg/mL
//
structure_as_smiles: CCCOc1ccc(-c2cc(OCCN3CCCCC3)c3cc(OC)c(OC)cc3n2)cc1
subject_of_test: Staphylococcus aureus
MIC: > 100 µg/mL
//
structure_as_smiles: CCCOc1ccc(-c2cc(OCCN3CCNCC3)c3ccc(OC)cc3n2)cc1
subject_of_test: Staphylococcus aureus
MIC: 100 µg/mL

Here is the next item to consider.
Problem: Fill blank: measured MIC of the compound CCCOc1ccc(-c2cc(OCCN(CC)CC)c3ccccc3n2)cc1 is ____.
Result: > 100 µg/mL
